Hello, the source for this data is patent US8003655B2, in case you need it.

- measured on: preactivated Tie2 (Homo sapiens, UniProt Q02763)
- Construct: A recombinant fusion protein of GST and the intracellular domains of Tie2; GST
- assay info: Tie2-Kinase HTRF-Assay with kinase preactivation (assay 3)
- condition notes: 10 μM ATP, pIC50 = −log IC50 in molar concentration, read-out: Tie 2 activity (assay 3)
value type: IC50

Query :: Fill in IC50 for record CCOC(=O)N=S(C)(=O)c1cccc(Nc2ncc(-c3ccc(NS(=O)(=O)c4cccc(Cl)c4Cl)c(F)c3)c(N[C@H](C)CO)n2)c1 (mixture of isomers) [Example 13]
Result :: 100 to 1000 nM

Query :: Fill in IC50 for record CCOC(=O)N=S(C)(=O)c1cccc(Nc2ncc(-c3ccc(NC(=O)Nc4cc(C(F)(F)F)ccc4F)c(F)c3)c(OC)n2)c1 (racemic) [Example 31]
Result :: < 100 nM

Query :: Fill in IC50 for record CS(=N)(=O)c1cccc(Nc2ncc(-c3ccc(NC(=O)Nc4cc(C(F)(F)F)ccc4F)c(F)c3)c(NCCCN3CCOCC3)n2)c1 (racemic) [Example 43]
Result :: < 100 nM

* * *

Kindly state IC50 for each of the entries shown.
- measured on: preactivated Tie2 (Homo sapiens)
- Construct: A recombinant fusion protein of GST and the intracellular domains of Tie2; GST
- assay info: Tie2-Kinase HTRF-Assay with kinase preactivation (assay 3)
- condition notes: 10 μM ATP, pIC50 = −log IC50 in molar concentration, read-out: Tie 2 activity (assay 3)

Query :: Supply IC50 measured with preactivated Tie2 (Homo sapiens) for CNc1nc(Nc2cccc(S(C)(=N)=O)c2)ncc1-c1ccc(NC(=O)Nc2cc(C(F)(F)F)ccc2F)c(F)c1 (racemic) .
Result :: < 0.1 µM

Query :: Supply IC50 measured with preactivated Tie2 (Homo sapiens) for COc1nc(Nc2cccc(S(C)(=N)=O)c2)ncc1-c1ccc(NS(=O)(=O)c2cccc(Cl)c2Cl)c(F)c1 (racemic) .
Result :: 0.1 to 1 µM

Query :: Supply IC50 measured with preactivated Tie2 (Homo sapiens) for CCOC(=O)N=S(C)(=O)c1cccc(Nc2ncc(-c3ccc(NS(=O)(=O)c4cccc(Cl)c4Cl)cc3)c(N[C@H](C)CO)n2)c1 (mixture of isomers) .
Result :: 0.1 to 1 µM

Query :: Supply IC50 measured with preactivated Tie2 (Homo sapiens) for CCOC(=O)N=S(C)(=O)c1ccc(Nc2ncc(-c3ccc(NC(=O)Nc4cccc(C(F)(F)F)c4)cc3)c(N[C@H](C)CO)n2)cc1 (mixture of isomers) .
Result :: < 0.1 µM

Query :: Supply IC50 measured with preactivated Tie2 (Homo sapiens) for C[C@H](CO)Nc1nc(Nc2cccc(S(C)(=N)=O)c2)ncc1-c1ccc(NS(=O)(=O)c2cccc(Cl)c2Cl)c(F)c1 (mixture of isomers) .
Result :: < 0.1 µM

Query :: Supply IC50 measured with preactivated Tie2 (Homo sapiens) for CCOC(=O)N=S(C)(=O)c1cccc(Nc2ncc(-c3ccc(NC(=O)C4(c5ccccc5)CC4)cc3)c(N[C@H](C)CO)n2)c1 (mixture of isomers) .
Result :: 0.1 to 1 µM

* * *

- measured on: Tie2 (Homo sapiens, UniProt Q02763)
- Construct: A recombinant fusion protein of GST and the intracellular domains of Tie2; GST
- Sequence (Q02763 770-1124 limits assumed): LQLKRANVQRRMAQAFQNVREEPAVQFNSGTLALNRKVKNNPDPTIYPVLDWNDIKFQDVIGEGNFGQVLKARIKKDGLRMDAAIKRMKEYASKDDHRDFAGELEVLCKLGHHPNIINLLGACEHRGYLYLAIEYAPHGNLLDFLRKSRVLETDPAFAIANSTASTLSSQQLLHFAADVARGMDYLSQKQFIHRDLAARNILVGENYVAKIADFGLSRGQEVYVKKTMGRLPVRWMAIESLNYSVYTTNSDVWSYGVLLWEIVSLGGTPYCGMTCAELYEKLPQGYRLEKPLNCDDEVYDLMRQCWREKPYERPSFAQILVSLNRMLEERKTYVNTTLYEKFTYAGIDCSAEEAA
- assay info: Tie2-Kinase HTRF-Assay without kinase preactivation (assay 2)
- condition notes: 10 μM ATP, pIC50 = −log IC50 in molar concentration, read-out: Tie 2 activity (assay 2)
- Description: Tie2-inhibitory activity of compounds of the present invention was quantified employing two Tie2 HTRF assay as described in the following paragraphs. […] The resulting mixture was incubated 1 h at 22° C. to allow the binding of the biotinylated phosphorylated peptide to the streptavidine-XLent and the PT66-Eu-Chelate. Subsequently the amount of phosphorylated substrate peptide was evaluated by measurement of the resonance energy transfer from the PT66-Eu-Chelate to the streptavidine-XLent. […]
value type: IC50

Query :: Fill in IC50 for record CSc1nc(Nc2cccc(S(C)(=N)=O)c2)ncc1-c1ccc(NC(=O)Nc2cc(C(F)(F)F)ccc2F)c(F)c1 (racemic)
Result :: < 100 nM

Query :: Fill in IC50 for record CCOC(=O)N=S(C)(=O)c1cccc(Nc2ncc(-c3ccc(NC(=O)Nc4cc(C(F)(F)F)ccc4F)c(F)c3)c(NCCN3CCN(C)CC3)n2)c1 (racemic)
Result :: < 100 nM

Query :: Fill in IC50 for record CCOC(=O)N=S(C)(=O)c1cccc(Nc2ncc(-c3ccc(NC(=O)Nc4cc(C(F)(F)F)ccc4F)c(F)c3)c(OC)n2)c1 (racemic)
Result :: < 100 nM

Query :: Fill in IC50 for record CCOC(=O)N=S(C)(=O)c1cccc(Nc2ncc(-c3ccc(NC(=O)Nc4cc(C(F)(F)F)ccc4F)c(F)c3)c(NCCN3CCOCC3)n2)c1 (racemic)
Result :: < 100 nM

Query :: Fill in IC50 for record C[C@H](CO)Nc1nc(Nc2cccc(S(C)(=N)=O)c2)ncc1-c1ccc(NC(=O)C2(c3ccccc3)CC2)cc1 (mixture of isomers)
Result :: < 100 nM

Query :: Fill in IC50 for record CC(C)NC(=O)N=S(C)(=O)c1cccc(Nc2ncc(-c3ccc(NC(=O)Nc4cccc(C(F)(F)F)c4)cc3)c(N[C@H](C)CO)n2)c1 (mixture of isomers)
Result :: 100 to 1000 nM

Query :: Fill in IC50 for record CS(=N)(=O)c1cccc(Nc2ncc(-c3ccc(NC(=O)Nc4cc(C(F)(F)F)ccc4F)c(F)c3)c(NCCCN3CCOCC3)n2)c1 (racemic)
Result :: < 100 nM

Query :: Fill in IC50 for record C[C@H](CO)Nc1nc(Nc2cccc(S(C)(=N)=O)c2)ncc1-c1ccc(NS(=O)(=O)c2cccc(Cl)c2Cl)c(F)c1 (mixture of isomers)
Result :: 100 to 1000 nM

Query :: Fill in IC50 for record CCOC(=O)N=S(C)(=O)c1cccc(Nc2ncc(-c3ccc(NS(=O)(=O)c4cccc(Cl)c4Cl)cc3)c(N[C@H](C)CO)n2)c1 (mixture of isomers)
Result :: 100 to 1000 nM

Query :: Fill in IC50 for record CCOC(=O)N=S(C)(=O)c1ccc(Nc2ncc(-c3ccc(NC(=O)Nc4ccccc4)cc3)c(N[C@H](C)CO)n2)cc1 (mixture of isomers)
Result :: 100 to 1000 nM
